Source: patent US8962656B2

I'd be grateful if you could share measured log10 Ki for these entries.
Target: CCR2 (Homo sapiens)
Construct: Membranes were prepared from THP-1 cells; endogenous in cells
Sequence (P41597 whole entry): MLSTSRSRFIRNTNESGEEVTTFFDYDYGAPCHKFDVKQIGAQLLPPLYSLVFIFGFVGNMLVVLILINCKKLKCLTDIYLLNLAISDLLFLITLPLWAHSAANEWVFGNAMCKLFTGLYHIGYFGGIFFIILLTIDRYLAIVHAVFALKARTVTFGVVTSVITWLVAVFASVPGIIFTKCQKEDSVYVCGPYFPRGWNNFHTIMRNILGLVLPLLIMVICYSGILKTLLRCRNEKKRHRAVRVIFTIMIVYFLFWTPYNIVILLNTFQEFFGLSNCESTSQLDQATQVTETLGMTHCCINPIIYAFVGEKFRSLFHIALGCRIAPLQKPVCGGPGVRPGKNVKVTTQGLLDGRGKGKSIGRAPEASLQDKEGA
Test: CCR2 receptor membrane binding assay ([125I]MCP-1, THP-1 membranes, SPA beads)
Settings: THP-1 cell membranes, [125I]MCP-1 displacement, bound radioactivity after 8 h; read-out: hKi
Reminder: these figures are log10 of reported Ki, in nM before transformation.

A selection of reference data follows.
CO[C@@H]1COCC[C@@H]1NC1CCN(C(=O)c2cncc(Nc3ccc(Cl)c(Cl)c3)c2C)CC1 [Example 6a] :: 1.26
CO[C@@H]1COCC[C@@H]1NC1CCN(C(=O)c2cncc(NC[C@H]3CCC[C@@H](c4ccc(C)cc4)O3)c2C)CC1 [Example 3] :: 0.78
CO[C@H]1COCC[C@H]1NC1CCN(C(=O)c2cncc(Nc3ccc(Cl)c(Cl)c3)c2C)CC1 [Example 6b] :: 1.93

// for each compound below, give its log10 Ki
1. CO[C@@H]1COCC[C@@H]1NC1CCN(C(=O)c2cncc(NC[C@H]3CCC[C@@H](c4ccc(C(F)(F)F)cc4)O3)c2)CC1 [Example 9]
2. CO[C@H]1COCC[C@H]1NC1CCN(C(=O)c2cncc(NC[C@H]3CCC[C@@H](c4ccc(C)cc4)O3)c2C)CC1 [Example 6]
3. CO[C@H]1COCC[C@H]1NC1CCN(C(=O)c2cncc(NC[C@H]3CCC[C@@H](c4ccc(C(F)(F)F)cc4)O3)c2)CC1 [Example 7]
4. CO[C@@H]1COCC[C@@H]1NC1CCN(C(=O)c2cncc(NCc3ccc(C(F)(F)F)c(Cl)c3)c2C)CC1 [Example 6d]

Result:
1: 1.43; 2: 1.32; 3: 1.60; 4: 1.86

* * *

Target: CCR2 (Homo sapiens)
Construct: Membranes were prepared from THP-1 cells; endogenous in cells; host or cells: THP-1 (human acute monocytic leukaemia cells), membrane preparation
Assay: CCR2 receptor membrane binding assay ([125I]MCP-1, THP-1 membranes, SPA beads)
Details: THP-1 cell membranes, [125I]MCP-1 displacement, bound radioactivity after 8 h; read-out: hKi
Measured Property: Ki (µM)
One number for each entry, in µM.

Below: 5 molecules and their reported Ki.
Cc1c(NCc2ccc(C(C)(C)C)cc2)cncc1C(=O)N1CCC(N2CCC(N(C)S(C)(=O)=O)CC2)CC1 [Example 1] :: 0.594
CO[C@@H]1COCC[C@@H]1NC1CCN(C(=O)c2cncc(NC[C@H]3CCC[C@@H](c4ccc(C)cc4)O3)c2)CC1 [Example 10] :: 0.107
CO[C@@H]1COCC[C@@H]1NC1CCN(C(=O)c2cncc(NCc3ccc(Cl)c(F)c3)c2C)CC1 [Example 6c] :: 0.133
CO[C@@H]1COCC[C@@H]1NC1CCN(C(=O)c2cncc(NC[C@H]3CCC[C@@H](c4ccc(OC(F)(F)F)cc4)O3)c2C)CC1 [Example 5] :: 0.001
Cc1c(NC[C@H]2CCC[C@@H](c3ccccc3)C2)cncc1C(=O)N1CCC(N2CCC(N(C)S(C)(=O)=O)CC2)CC1 [Example 2] :: 0.042

Each molecule below has a recorded value; state its Ki.
1. CO[C@H]1COCC[C@H]1NC1CCN(C(=O)c2cncc(NC[C@H]3CCC[C@@H](c4ccc(OC(F)(F)F)cc4)O3)c2C)CC1 [Example 4]
2. O=C(c1cncc(NC[C@H]2CCC[C@@H](c3ccc(C(F)(F)F)cc3)O2)c1)N1CCC(NC2CCOCC2F)CC1 (stereo partly shown) [Example 8]

Result:
0.002
0.1
